All values here come from patent US8680290B2.

Please respond with reported herbicidal action (damage rating 0-10), Digitaria for every item in the list.
test system: Monocotyledonous and dicotyledonous test plants; test: Example B1 herbicidal action, application pre-emergence (Table B1b); assay type: in vivo; conditions: Digitaria, 250 g/ha, evaluated after 4 weeks
One number for each entry.

Example entries and their recorded answers appear below.
compound	study-target	test-result
Cn1nc(C(F)(F)F)c(C(Cl)(Cl)S(=O)(=O)C2=NOC(C)(C)C2)c1OCC(F)(F)F [2.13]	Monocotyledonous and dicotyledonous test plants	10
Cc1ccccc1C(F)S(=O)(=O)C1=NOC(C)(C)C1 (racemic) [1.93]	Monocotyledonous and dicotyledonous test plants	10
C=C(OC(C)=O)C(Cl)(c1c(F)cccc1F)S(=O)(=O)C1=NOC(C)(C)C1 (stereo not shown) [Compound No. 1.58]	Monocotyledonous and dicotyledonous test plants	8
Cc1ccc(F)c(C(F)S(=O)(=O)C2=NOC(C)(C)C2)c1F (stereo not shown) [1.105]	Monocotyledonous and dicotyledonous test plants	8
CC1(C)CC(S(=O)(=O)C(Br)c2ccccc2F)=NO1 (racemic) [1.82]	Monocotyledonous and dicotyledonous test plants	9
Cc1nn(C)c(OCC(F)(F)F)c1C(F)S(=O)(=O)C1=NOC(C)(C)C1 (stereo not shown) [Compound No. 2.24]	Monocotyledonous and dicotyledonous test plants	10
COc1ccccc1C(Br)S(=O)(=O)C1=NOC(C)(C)C1 (stereo not shown) [1.101]	Monocotyledonous and dicotyledonous test plants	8
CC1(C)CC(S(=O)(=O)C(F)(F)c2cc(F)cc(F)c2)=NO1 [1.115]	Monocotyledonous and dicotyledonous test plants	10

Provide reported herbicidal action (damage rating 0-10), Digitaria for each item, in the same order as listed.
1. CC1(C)CC(S(=O)(=O)C(F)(F)c2ccccc2-c2ccccc2)=NO1 [1.117]
2. CC1(C)CC(S(=O)(=O)C(C(=O)C(F)F)c2c(F)cccc2F)=NO1 (stereo not shown) [Compound No. 1.57]
3. Cn1nc(C(F)(F)F)c(C(Br)S(=O)(=O)C2=NOC(C)(C)C2)c1OCC(F)(F)F (stereo not shown) [2.10]
4. CC1(C)CC(S(=O)(=O)C(Cl)c2cc(F)cc3c2OCOC3)=NO1 (stereo not shown) [1.147]
5. CC1(C)CC(S(=O)(=O)C(c2c(F)cccc2F)C(F)(F)F)=NO1 (stereo not shown) [Compound No. 1.113]
6. Cn1nc(C(F)(F)F)c(C(F)(F)S(=O)(=O)C2=NOC(C)(C)C2)c1Cl [2.03]
7. CC1(C)CC(S(=O)(=O)C(F)(F)c2cc(F)cc3c2OCOC3)=NO1 [1.109]
8. CC1(C)CC(S(=O)(=O)C(F)(F)c2ccccc2[S+]([O-])C(F)(F)F)=NO1 (racemic) [1.69]

[10, 8, 10, 10, 9, 10, 10, 10]

Provide reported herbicidal action (damage rating 0-10), Digitaria for each item, in the same order as listed.
1. Cc1ccc(F)c(C(F)(Cl)S(=O)(=O)C2=NOC(C)(C)C2)c1F (stereo not shown) [1.146]
2. Cc1cc(C(F)(Cl)S(=O)(=O)C2=NOC(C)(C)C2)no1 (stereo not shown) [4.01]

10
8

Recall and state the measured herbicidal action (damage rating 0-10), Digitaria for Cc1cc(C(F)(F)S(=O)(=O)C2=NOC(C)(C)C2)no1 [4.03] . 10
